target: human recombinant adrenergic α2A receptor (Homo sapiens, UniProt P08913); construct: expressed in transfected cells; host or cells: insect Sf9 cells; assay: Radioligand binding, adrenergic α2A ([3H]MK-912); settings: 0.1 μM compound; read-out: Percentage inhibition of ligand binding, Adrenergic α2A
Assay Readout: inhibition at 0.1 µM (%)

Worked set:
CN1CCc2c(c3cc(Cl)c(Cl)cc3n2CC(C)(O)c2ccncc2)C1 (stereo not drawn) = 44
Cc1ccc2c(c1)c1c(n2CC(C)(OC(=O)C(C)(C)C)c2cccnc2)CCN(C)C1 (stereo not drawn) [II-16a] = 11
C/C(=C/n1c2c(c3cc(C)ccc31)CN(C)CC2)c1ccc2ccccc2c1 = 97
C/C(=C\n1c2c(c3cc(C)ccc31)CN(C)CC2)c1cccnc1 = 62

P. C/C(=C\n1c2c(c3cc(Cl)ccc31)CN(C)CC2)c1ccc(S(C)(=O)=O)cc1
Q. Cc1ccc2c(c1)c1c(n2CC(O)c2ccccc2F)CN(C)CC1 (single isomer, unassigned) [II-49a]
R. CCC1c2c(c3cc(C)ccc3n2CC(O)c2ccncc2)CCN1C (stereo not drawn)
Query :: Sort entries by inhibition at 0.1 µM from minimum to maximum value. Return the labels ranked in the requested order, please.
Result :: R, Q, P
(R: 10%, Q: 34%, P: 72%)

----------
target: rat adrenergic α1B receptor (Rattus norvegicus); construct: rat adrenergic α1B receptor obtained from Wistar Rat liver; from tissue; host or cells: Wistar rat liver; test: Radioligand binding, adrenergic α1B ([3H]Prazosin); settings: read-out: Percentage inhibition of ligand binding, Adrenergic α1B (0.1 μM), compound at 0.1 μM; [3H]Prazosin; repeat datapoints each shown
Sequence (P15823 whole entry): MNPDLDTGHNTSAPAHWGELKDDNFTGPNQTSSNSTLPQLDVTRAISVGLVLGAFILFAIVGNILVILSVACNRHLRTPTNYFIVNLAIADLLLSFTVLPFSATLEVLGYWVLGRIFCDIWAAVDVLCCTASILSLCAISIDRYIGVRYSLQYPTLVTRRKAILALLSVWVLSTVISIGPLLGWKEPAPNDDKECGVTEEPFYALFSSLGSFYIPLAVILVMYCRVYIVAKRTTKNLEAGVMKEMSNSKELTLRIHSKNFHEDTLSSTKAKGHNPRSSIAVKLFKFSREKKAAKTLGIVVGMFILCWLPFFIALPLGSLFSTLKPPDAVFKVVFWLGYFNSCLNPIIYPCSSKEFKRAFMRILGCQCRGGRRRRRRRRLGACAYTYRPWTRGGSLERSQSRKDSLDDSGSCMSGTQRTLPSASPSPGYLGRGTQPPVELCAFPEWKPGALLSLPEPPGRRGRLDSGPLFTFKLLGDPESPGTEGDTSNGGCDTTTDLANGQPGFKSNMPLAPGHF
Assay Readout: inhibition at 0.1 µM (%)

Example molecules with recorded inhibition at 0.1 µM:
Cc1cnc2c(c1)c1c(n2CCc2ccc(C(F)(F)F)nc2)CCN(C)C1 [II-119] = 23
C/C(=C\n1c2c(c3cc(C)ccc31)CCN(C)CC2)c1ccncn1 [compound 106] = 65

A. C/C(=C\n1c2c(c3cc(C)ccc31)CN(C)CC2)c1ccc(CO)nc1 [compound 125]
B. Cc1cnc2c(c1)c1c(n2CCc2ccncc2)CCN(C)C1 [II-240]
Query :: Sort A and B by inhibition at 0.1 µM descending and give the first. Pick one and reply with its label.
Result :: B
(B: 57%, A: -3%)

a. Cc1cnc2c(c1)c1c(n2CC(C)(O)c2ccc(C)nc2)CCN2CCCC12 (single isomer, unassigned) [148b]
b. CN1CCc2c(c3ccncc3n2CC(C)(O)c2cccnc2)C1 (stereo not drawn) [II-129]
Query :: Please indicate which item has the smaller measured inhibition at 0.1 µM: a versus b # reply format: chosen label
Result :: b

----------
target: human recombinant adrenergic α1D receptor (Homo sapiens, UniProt P25100); construct: expressed in transfected cells; host or cells: HEK-293; experiment: Radioligand binding, adrenergic α1D ([3H]Prazosin); conditions: read-out: Percentage inhibition of ligand binding, Adrenergic α1D (0.1 μM), compound at 0.1 μM; [3H]Prazosin; repeat datapoints each shown
Sequence (P25100 whole entry): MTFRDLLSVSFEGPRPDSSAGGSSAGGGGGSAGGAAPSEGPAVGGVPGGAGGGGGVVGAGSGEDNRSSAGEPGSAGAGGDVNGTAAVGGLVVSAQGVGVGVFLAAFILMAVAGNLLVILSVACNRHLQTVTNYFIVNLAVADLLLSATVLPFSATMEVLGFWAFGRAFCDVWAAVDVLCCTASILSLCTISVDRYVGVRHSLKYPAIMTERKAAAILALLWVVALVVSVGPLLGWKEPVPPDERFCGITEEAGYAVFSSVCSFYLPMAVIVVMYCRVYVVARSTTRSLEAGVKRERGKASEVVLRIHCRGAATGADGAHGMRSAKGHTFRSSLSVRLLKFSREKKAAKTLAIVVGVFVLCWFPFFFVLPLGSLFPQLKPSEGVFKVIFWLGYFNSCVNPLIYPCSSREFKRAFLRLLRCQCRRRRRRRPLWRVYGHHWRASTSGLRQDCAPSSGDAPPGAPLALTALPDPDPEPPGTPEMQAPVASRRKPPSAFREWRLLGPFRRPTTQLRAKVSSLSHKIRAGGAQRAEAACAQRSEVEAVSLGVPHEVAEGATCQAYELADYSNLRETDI
Assay Readout: inhibition at 0.1 µM (%)

Known results for molecules:
C/C(=C\n1c2c(c3cc(C)ccc31)CN(C)CC2)c1cn[nH]c1 [compound 115] = 24
COc1ccc2c(c1)c1c(n2/C=C(/C)c2ccncc2)CCN(C)C1 [compound 100] = 47
C/C(=C\n1c2c(c3cc(C)ccc31)CCN(C)CC2)c1ccccc1F [compound 232] = 43
Cc1ccc(CCn2c3c(c4cccnc42)C2CCCN2CC3)cn1 (stereo not drawn) [IV-4] = 15
C/C(=C/n1c2c(c3cc(Cl)ccc31)CCN(C)CC2)c1ccc(Cl)cc1Cl [compound 228] = 19
C/C(=C\n1c2c(c3cc(C)ccc31)CN(C)CC2)c1sccc1C [compound 189] = 16
Cc1cnc2c(c1)c1c(n2CCc2ccc(C(F)(F)F)nc2)CCN(C)C1 [II-119] = 53

a. C/C(=C/n1c2c(c3cc(C)ccc31)CCN(C)CC2)c1ccccc1F [compound 230]
b. C/C(=C/n1c2c(c3cc(C)ccc31)CN(C)CC2)c1cccc(F)c1 [compound 236]
Query :: Quick check, higher inhibition at 0.1 µM between a and b ? Give the label of your selection.
Result :: b
(b: 85%, a: 58%)

----------
biological target: human recombinant adrenergic α2B receptor (Homo sapiens, UniProt P18089); construct: expressed in transfected cells; host or cells: CHO-K1; experiment: Radioligand binding, adrenergic α2B ([3H]Rauwolscine); details: compound at 0.03 μM; [3H]Rauwolscine; repeat datapoints each shown; 0.03 µM
Sequence (P18089 whole entry): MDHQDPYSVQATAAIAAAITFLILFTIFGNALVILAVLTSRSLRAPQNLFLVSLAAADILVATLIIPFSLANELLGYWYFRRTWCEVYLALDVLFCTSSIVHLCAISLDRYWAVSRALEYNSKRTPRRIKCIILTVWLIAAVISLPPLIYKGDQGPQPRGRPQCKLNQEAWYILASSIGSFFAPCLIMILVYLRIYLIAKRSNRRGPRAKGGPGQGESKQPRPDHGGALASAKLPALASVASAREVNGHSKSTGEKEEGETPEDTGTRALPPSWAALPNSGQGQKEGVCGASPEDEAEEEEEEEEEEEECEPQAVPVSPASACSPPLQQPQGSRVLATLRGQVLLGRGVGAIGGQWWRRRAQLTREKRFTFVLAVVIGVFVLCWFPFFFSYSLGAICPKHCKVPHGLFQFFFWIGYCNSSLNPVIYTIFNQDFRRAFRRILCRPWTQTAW
Assay Readout: Percentage inhibition of ligand binding, Adrenergic α2B (0.03 μM) (%)

Please review the entries below; each comes with its answer.
Cc1ccc2c(c1)c1c(n2CC(c2ccncc2)N(C)C)CCN(C)C1 (single isomer, unassigned) [150a] = 96
Cc1cnc2c(c1)c1c(n2CCc2ccncc2)CCN2CCCC12 (single isomer, unassigned) [II-244a] = 102
CCN1CCc2c(c3cc(C)ccc3n2CC(O)c2ccc(C)cc2)C1 (single isomer, unassigned) [203b] = 24
Cc1ccc(C(C)(O)Cn2c3c(c4cc(Cl)ccc42)CN(C)CC3)cn1 (single isomer, unassigned) [93b] = 26
Cc1ccc2c(c1)c1c(n2CC(O)c2ccc(C(N)=O)cc2)CCN(C)C1 (single isomer, unassigned) [139b] = 59

P. Cc1ccc2c(c1)c1c(n2CC(C)(OC(=O)C(C)C)c2cccnc2)CCN(C)C1 (single isomer, unassigned) [146a]
Q. Cc1ccc2c(c1)c1c(n2CC(O)c2ccc(C)nc2)CCN2CCCC12 (single isomer, unassigned) [198b]
Query :: Of P and Q , which shows the smaller Percentage inhibition of ligand binding, Adrenergic α2B (0.03 μM) value? Let me know the label of the one you choose.
Result :: P
(P: 37%, Q: 103%)

----------
Molecular target: human recombinant adrenergic α2A receptor (Homo sapiens, UniProt P08913)
Construct: expressed in transfected cells; host or cells: insect Sf9 cells
Test: Radioligand binding, adrenergic α2A ([3H]MK-912)
Conditions: read-out: Percentage inhibition of ligand binding, Adrenergic α2A (0.1 μM), compound at 0.1 μM; [3H]MK-912; repeat datapoints each shown
Method: To evaluate in radioligand binding assays the activity of compounds of the invention, human recombinant adrenergic α2A receptor expressed in insect Sf9 cells (Uhlen, S. et al, J. Pharmacol. Exp. Ther. 271:1558, 1994) in a modified Tris-HCl buffer (50 mM Tris-HCl, pH 7.4, 12.5 mM MgCl2, 2 mM EDTA) was used. […] Receptor proteins were filtered and washed, the filters were then counted to determine [^3H]MK-912 specifically bound. […]
Assay Readout: inhibition at 0.1 µM (%)

Look over these answered cases.
Cc1ccc2c(c1)c1c(n2CC(CC(=O)O)c2ccncc2)CCN(C)C1 (centres unmarked) = 3
CC(=O)Nc1ccc(/C(C)=C/n2c3c(c4cc(C)ccc42)CN(C)CC3)cn1 = 26
C/C(=C\n1c2c(c3cc(C)ccc31)CN(C)CC2)c1cn[nH]c1 = 21
Cc1ccc2c(c1)c1c(n2CC(C)(O)c2ccc(F)cc2)CCN2CCCC12 (single isomer, unassigned) [II-121a] = 91
Cc1cnc2c(c1)c1c(n2CCc2cnccn2)CCN2CCCC12 (centres unmarked) = 7
Cc1ccc2c(c1)c1c(n2/C=C(\F)c2ccncc2)CCN(C)C1 = 14
Cc1ccc2c(c1)c1c(n2CC(O)c2ccc(C(N)=O)cc2)CCN(C)C1 (single isomer, unassigned) [139a] = 16
C=C(n1ccnc1)n1c2c(c3cc(C)ccc31)CN(C)CC2 = 19
Cc1ccc2c(c1)c1c(n2C2=C(c3ccc(C)s3)CCC2)CCN(C)C1 = 70
Cc1ccc2c(c1)c1c(n2CC(O)c2ccnc(C(=O)O)c2)CCN2CCCC12 (centres unmarked) = 16

1. COc1ccc(/C(C)=C/n2c3c(c4cc(C)ccc42)CCN(C)CC3)c(F)c1
2. Cc1ccc2c(c1)c1c(n2CC(C)(O)c2ccc(O)cc2)CCN(C)C1 (centres unmarked)
3. Cc1ccc2c(c1)c1c(n2CCc2cncc(F)c2)CCN(C)C1
Query :: In this exercise, place the 3 compounds in ascending sequence of their recorded inhibition at 0.1 µM. Answer format: list of labels, ordered as asked.
Result :: 3, 2, 1
(3: 18%, 2: 26%, 1: 96%)

P. Cc1cnc2c(c1)c1c(n2CC(C)(O)c2ccc(C)nc2)CCN2CCCC12 (single isomer, unassigned) [148b]
Q. Cc1ccc(CCn2c3c(c4c(Cl)ccc(Br)c42)CN(C)CC3)cn1
Query :: // compare: P vs Q , metric inhibition at 0.1 µM, want the smaller Reply briefly: the label of your chosen item.
Result :: P
(P: 37%, Q: 91%)

----------
Target: human recombinant adrenergic α2A receptor (Homo sapiens, UniProt P08913)
Construct: expressed in transfected cells; host or cells: insect Sf9 cells
Sequence (P08913 1-465): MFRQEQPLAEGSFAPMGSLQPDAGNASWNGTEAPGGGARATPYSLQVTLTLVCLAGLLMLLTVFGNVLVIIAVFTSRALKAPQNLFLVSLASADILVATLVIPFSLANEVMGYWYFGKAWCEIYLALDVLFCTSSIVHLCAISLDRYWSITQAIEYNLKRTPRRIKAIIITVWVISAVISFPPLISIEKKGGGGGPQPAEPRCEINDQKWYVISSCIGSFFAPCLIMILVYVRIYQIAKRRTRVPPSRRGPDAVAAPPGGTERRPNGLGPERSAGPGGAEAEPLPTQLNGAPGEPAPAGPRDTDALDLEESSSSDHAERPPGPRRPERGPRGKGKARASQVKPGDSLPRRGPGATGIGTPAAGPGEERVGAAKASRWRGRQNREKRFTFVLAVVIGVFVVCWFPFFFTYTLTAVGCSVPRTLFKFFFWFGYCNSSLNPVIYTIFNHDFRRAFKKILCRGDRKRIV
Assay: Radioligand binding, adrenergic α2A ([3H]MK-912)
Conditions: compound at 0.03 μM; [3H]MK-912; repeat assays, each datapoint shown; read-out: Percentage inhibition of ligand binding, Adrenergic α2A
Assay Readout: inhibition at 0.03 µM (%)

These recorded examples may help you get a feel for the data.
Cc1ccc2c(c1)c1c(n2CCc2ccc(CO)nc2)CCN(C)C1 = 6
Cc1ccc2c(c1)c1c(n2CC(O)c2ccncc2)CCN(C)C1 (single isomer, unassigned) [3b] = 1
CN1CCc2c(c3cc(Cl)ccc3n2CC(C)(O)c2cccnc2)C1 (single isomer, unassigned) [31a] = 11
Cc1ccc2c(c1)c1c(n2CC(C)(O)c2ccc(C)nc2)CCN(C)C1 (single isomer, unassigned) [29a] = 16
Cc1ccc2c(c1)c1c(n2CC(O)c2ccncc2)CCNC1 (single isomer, unassigned) [39a] = 5

A. Cc1ccc2c(c1)c1c(n2CC(O)c2ccncc2)CCN(C)C1 (stereo not drawn) [compound 3]
B. Cc1ccc2c(c1)c1c(n2CC(O)c2ccc(F)cc2)CCN(C)C1 (single isomer, unassigned) [30b]
Query :: # min-compare on inhibition at 0.03 µM between A and B API: response body contains the label of the selected item.
Result :: A
(A: 4%, B: 42%)

A. Cc1cnc2c(c1)c1c(n2CC(C)(O)c2cccnc2)CCN2CCCC12 (single isomer, unassigned) [26a]
B. CN1CCc2c(c3cc(Cl)ccc3n2CC(O)c2ccncc2)C1 (single isomer, unassigned)
Query :: Looking only at measured inhibition at 0.03 µM, which entry is lower, A or B ? Kindly state the label of the option you pick.
Result :: B
